Source: patent US20050037033A1

assayProcedure: Cytotoxicity assay
Type: cell-based
testContext: human, P4-R5 cells; Series 2; P4-R5, 2 hour incubation; 100 μg/ml highest conc tested
property: CC50 at 2 h

Task: What value of CC50 at 2 h has been recorded for this entry: Cc1cc(C2CCCCC2)n(O)c(=O)c1.NCCO
Output: > 100 µg/mL

###

assayProcedure: Cytotoxicity assay
Assay type: cell-based
testContext: human, VK-2/E6E7 cells (vaginal epithelium cell line); Series 2; VK-2/E6E7, 2 hour incubation
property: CC50 at 2 h (µg/mL)
Respond numerically; units are µg/mL and should not be typed.

Task: What value of CC50 at 2 h has been recorded for this entry: Cc1cc(C2CCCCC2)n(O)c(=O)c1.NCCO
Output: 100
